Would you kindly list Potency (cAMP, transient hRXFP1 in HEK293) for each of these binders?
- targetOrTestSystem: T1, human RXFP1 (human, UniProt Q9HBX9 1-757)
- T1 sequence (looked up): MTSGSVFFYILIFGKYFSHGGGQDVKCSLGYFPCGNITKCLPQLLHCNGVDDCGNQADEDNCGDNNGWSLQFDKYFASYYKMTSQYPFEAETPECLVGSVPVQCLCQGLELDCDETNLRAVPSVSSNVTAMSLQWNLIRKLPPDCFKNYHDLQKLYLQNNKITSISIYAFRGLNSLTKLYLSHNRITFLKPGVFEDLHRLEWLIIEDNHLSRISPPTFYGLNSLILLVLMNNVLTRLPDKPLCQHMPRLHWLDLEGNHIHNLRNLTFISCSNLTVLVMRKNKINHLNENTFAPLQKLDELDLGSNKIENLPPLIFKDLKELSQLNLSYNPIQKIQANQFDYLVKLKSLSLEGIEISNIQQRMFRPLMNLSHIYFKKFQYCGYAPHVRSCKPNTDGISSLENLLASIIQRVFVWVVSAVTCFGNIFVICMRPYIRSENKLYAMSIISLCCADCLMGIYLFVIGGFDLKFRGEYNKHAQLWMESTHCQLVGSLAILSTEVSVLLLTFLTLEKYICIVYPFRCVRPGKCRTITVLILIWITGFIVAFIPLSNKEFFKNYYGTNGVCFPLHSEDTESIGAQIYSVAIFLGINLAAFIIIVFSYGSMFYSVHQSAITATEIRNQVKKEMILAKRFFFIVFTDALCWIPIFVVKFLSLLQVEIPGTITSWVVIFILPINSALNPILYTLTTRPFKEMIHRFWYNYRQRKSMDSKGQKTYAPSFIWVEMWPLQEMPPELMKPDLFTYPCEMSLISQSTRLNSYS
- experimentalProtocol: cell-based or functional assay
Unit nM implied. Number only.

Would you kindly share the measured Potency (cAMP, transient hRXFP1 in HEK293) for SEQ ID NO: 368 (Fc fusion) DKTHTCPPCPAPEAAGGPSVFLFPPKPKDTLMISRTPEVTCVVVDVSHEDPEVKFNWYVDGVEVHNAKTKPREEQYNSTYRVVSVLTVLHQDWLNGKEYKCKVSNKALAAPIEKTISKAKGQPREPQVYTLPPSRDELTKNQVSLTCLVKGFYPSDIAVEWESNGQPENNYKTTPPVLDSDGSFFLYSKLTVDKSRWQQGNVFSCSVLHEALHSHYTQKSLSLSPGGGSDSWQEEVIKLCGRELVRAQIAICGKSTGGEGGGEEGGGEGGQLYSALANKCCHVGCTKRSLARFC ?
101

Now the binder SEQ ID NO: 326 (Fc fusion) DKTHTCPPCPAPEAAGGPSVFLFPPKPKDTLMISRTPEVTCVVVDVSHEDPEVKFNWYVDGVEVHNAKTKPREEQYNSTYRVVSVLTVLHQDWLNGKEYKCKVSNKALAAPIEKTISKAKGQPREPQVYTLPPSRDELTKNQVSLTCLVKGFYPSDIAVEWESNGQPENNYKTTPPVLDSDGSFFLYSKLTVDKSRWQQGNVFSCSVLHEALHSHYTQKSLSLSPGKGGSDSWQEEVIKLCGRELVRAQIAICGKSTGGEGEGGEGEGGSRQLYSALANKCCHVGCTKRSLAQFC
18.9
